TESTED_TARGET: Cytochrome P450 3A4 (Homo sapiens, UniProt P08684)
Sequence (P08684 whole entry): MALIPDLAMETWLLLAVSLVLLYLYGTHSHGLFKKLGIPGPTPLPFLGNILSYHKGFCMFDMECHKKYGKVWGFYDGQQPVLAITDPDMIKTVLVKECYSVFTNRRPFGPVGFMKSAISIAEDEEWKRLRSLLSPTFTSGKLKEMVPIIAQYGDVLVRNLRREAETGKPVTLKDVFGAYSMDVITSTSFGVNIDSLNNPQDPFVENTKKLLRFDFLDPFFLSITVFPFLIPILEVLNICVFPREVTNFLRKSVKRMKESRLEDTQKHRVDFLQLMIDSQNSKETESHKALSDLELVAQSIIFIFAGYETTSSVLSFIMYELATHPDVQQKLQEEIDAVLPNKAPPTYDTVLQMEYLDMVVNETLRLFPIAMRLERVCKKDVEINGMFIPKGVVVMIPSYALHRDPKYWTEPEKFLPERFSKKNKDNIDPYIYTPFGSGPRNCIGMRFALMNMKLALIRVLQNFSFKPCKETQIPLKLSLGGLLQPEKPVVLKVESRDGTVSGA
pIC50: −log10 of the molar value.
METRIC: pIC50

Incoming: Let me know recorded pIC50 for CCC1(C)NC(=O)c2cc(S(=O)(=O)Nc3ccc(F)cc3F)cc(Cl)c2NC1=O (stereo unspecified) , thanks.
Outgoing: < 4.52

---

PROTOCOL_DESCRIPTION: Lipophilicity, log D of the compound at pH 7.4 after 30 mins by shake-flask method
MEASUREMENT_SETUP: buffer, pH 7.4, logD
// reported logD at 0.5 h per item
Respond using a number only.

compound=CC1(C)NC(=O)c2cc(S(=O)(=O)Nc3ccc(C(F)(F)F)cc3)cnc2NC1=O reported=1.8

Incoming: Tell us which logD at 0.5 h value is on record for COc1cc2c(cc1S(=O)(=O)Nc1ccc(C(F)(F)F)cc1)C(=O)NC(C)(C)C(=O)N2
Outgoing: 2.8

Incoming: Look up and state reported logD at 0.5 h for CC1(C)NC(=O)c2cc(S(=O)(=O)Nc3ccc(F)cc3F)ccc2NC1=O
Outgoing: 1.3

Incoming: Give me measured logD at 0.5 h, please, for this compound: CC1(C)NC(=O)c2c(ccc(S(=O)(=O)Nc3ccc(C(F)(F)F)cc3)c2F)NC1=O
Outgoing: 2.4

---

In this section we review reported logD at 0.5 h values for a set of compounds.
PROTOCOL_DESCRIPTION: Lipophilicity, log D of the compound at pH 7.4 after 30 mins by shake-flask method
MEASUREMENT_SETUP: buffer, pH 7.4, logD
When you answer, write just the number.

Known logD at 0.5 h results, listed for orientation:
compound="CCC1(C)NC(=O)c2cc(S(=O)(=O)Nc3ccc(C(F)(F)F)cc3OC)cc(Cl)c2NC1=O (stereo not drawn)" reported=3
compound="CCc1cc(S(=O)(=O)Nc2ccc(F)cc2F)cc2c1NC(=O)C(C)(CC)NC2=O (racemic)" reported=2.1

As a next step, examine the compound that follows.
Incoming: Return reported logD at 0.5 h. Input compound: CCC1(C)NC(=O)c2cc(S(=O)(=O)Nc3ccc(F)cc3F)cc(C)c2NC1=O (single isomer, unassigned; enantiomer 2)
Outgoing: 5.4

These measurements were taken from ChEMBL document CHEMBL3132851.
